# experimental-target: Ephrin type-B receptor 1 (Homo sapiens) (UniProt P54762)
# Sequence (P54762 whole entry): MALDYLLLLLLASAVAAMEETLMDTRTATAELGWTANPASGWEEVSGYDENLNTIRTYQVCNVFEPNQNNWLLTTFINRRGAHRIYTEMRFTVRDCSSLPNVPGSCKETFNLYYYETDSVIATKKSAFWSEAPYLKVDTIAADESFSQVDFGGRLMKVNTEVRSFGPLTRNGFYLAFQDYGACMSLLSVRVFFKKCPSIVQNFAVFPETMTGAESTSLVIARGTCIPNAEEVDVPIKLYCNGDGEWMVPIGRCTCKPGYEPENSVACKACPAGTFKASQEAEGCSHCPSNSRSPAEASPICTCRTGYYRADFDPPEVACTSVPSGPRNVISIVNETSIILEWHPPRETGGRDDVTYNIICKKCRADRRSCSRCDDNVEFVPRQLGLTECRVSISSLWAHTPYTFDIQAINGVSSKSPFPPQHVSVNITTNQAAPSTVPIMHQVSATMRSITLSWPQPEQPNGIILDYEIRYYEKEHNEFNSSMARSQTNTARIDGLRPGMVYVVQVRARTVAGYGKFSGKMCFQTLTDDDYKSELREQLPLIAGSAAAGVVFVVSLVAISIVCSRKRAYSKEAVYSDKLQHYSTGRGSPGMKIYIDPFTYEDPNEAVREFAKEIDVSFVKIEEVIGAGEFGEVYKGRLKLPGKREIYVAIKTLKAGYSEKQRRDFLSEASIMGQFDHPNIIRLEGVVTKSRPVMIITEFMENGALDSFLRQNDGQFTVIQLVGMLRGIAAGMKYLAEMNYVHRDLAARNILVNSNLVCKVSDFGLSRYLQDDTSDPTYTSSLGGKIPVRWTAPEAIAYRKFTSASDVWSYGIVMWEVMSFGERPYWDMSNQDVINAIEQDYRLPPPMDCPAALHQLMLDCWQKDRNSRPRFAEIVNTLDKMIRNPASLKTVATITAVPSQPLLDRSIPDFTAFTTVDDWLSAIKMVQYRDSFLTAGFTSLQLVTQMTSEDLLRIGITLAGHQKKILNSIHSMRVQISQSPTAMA
# assay-method-text: Inhibition of EphB1 at 10 uM
Activity calls are given as the source filed them. The calls are words filed in the database; no cut-off is given here.

| smiles-structure | inhibition |
| --- | --- |
| Cc1ccc(C(=O)Nc2cccc(C(F)(F)F)c2)cc1Nc1cncc(C(N)=O)c1 | inactive |
| Cc1ccc(C(=O)Nc2cccc(C(F)(F)F)c2)cc1Nc1ccc2occc(=O)c2c1 | inactive |
| Cc1cn(-c2cc(NC(=O)c3ccc(C)c(NC(=O)c4ccno4)c3)cc(C(F)(F)F)c2)cn1 | inactive |
